# protocol text: Phase 1 Stage 1 clinical pharmacokinetics of SC ZA co-administered with rHuPH20
# Type: in vivo, human
# experimental context: human, serum, sc, 0.0196 mg/kg; read-out: T½ λz (converted)
# Method: A pharmacokinetic study of zoledronic acid (ZA) co-administered with rHuPH20 in human subjects was conducted. […] Serum concentration of ZA was determined using a qualified LC-MS-MS assay after derivatization with diazomethane (Zhu, L S et al. (2006) Rapid Commun. […] The assay range was from 2.0 to 400 ng/mL with a lower limit of quantitation (LLOQ) at 2.0 ng/mL. […] Summary statistics (mean, standard deviation, and median) were calculated using JMP or Microsoft Excel.
observable: half-life (h)

- O=P(O)(O)C(O)(Cn1ccnc1)P(=O)(O)O [ZA]: 6.53

====

# protocol text: Phase 1 Stage 1 clinical pharmacokinetics of SC ZA co-administered with rHuPH20
# Assay type: in vivo, human
# experimental context: human, serum, sc, ZA 0.25 mg SC + 24000 U rHuPH20; individual subjects
observable: CL/F (mL/min/kg)

* O=P(O)(O)C(O)(Cn1ccnc1)P(=O)(O)O | 2.47

====

# protocol text: Pharmacokinetics of ZA in pig serum after IV or SC infusion with or without rHuPH20 (LC-MS-MS, non-compartmental analysis)
# Assay type: in vivo
# experimental context: female, Yorkshire, pig, serum, sc, […], pig; SC ZA […], no rHuPH20 (Study Group 2); n=4; read-out: Tmax, mean
observable: Tmax (min)

* O=P(O)(O)C(O)(Cn1ccnc1)P(=O)(O)O | 12.6

====

# protocol text: Pharmacokinetics of ZA in pig serum after IV or SC infusion with or without rHuPH20 (LC-MS-MS, non-compartmental analysis)
# Type: in vivo
# experimental context: female, Yorkshire, pig, serum, iv, […], pig; ZA […] 20-min IV infusion; n=3; read-out: CL, mean (converted)
observable: clearance (L/h/kg)

• O=P(O)(O)C(O)(Cn1ccnc1)P(=O)(O)O [ZA] = 0.44

====

# protocol text: Phase 1 Stage 1 clinical pharmacokinetics of SC ZA co-administered with rHuPH20
# Format: in vivo, human
# experimental context: human, serum, sc, serum; ZA 1 mg SC infusion + 24000 Units rHuPH20; 1 h post infusion; n=3; read-out: Mean Conc.
observable: concentration at 1 h

* O=P(O)(O)C(O)(Cn1ccnc1)P(=O)(O)O [ZA] | 25.5 ng/mL

====

# protocol text: Phase 1 Stage 1 clinical pharmacokinetics of SC ZA co-administered with rHuPH20
# Format: in vivo, human
# experimental context: human, serum, sc, AUC (0-12h), ZA 0.25 mg SC + 24000 U rHuPH20; individual subjects
observable: AUC(0-t) (ng·h/mL)

* O=P(O)(O)C(O)(Cn1ccnc1)P(=O)(O)O | 29.7

====

# protocol text: Phase 1 Stage 1 clinical pharmacokinetics of SC ZA co-administered with rHuPH20
# Type: in vivo, human
# experimental context: human, serum, sc, […], Subj 21; ZA […] SC; inf 0.556 hr; PH20 24000 U; read-out: Tmax
# Procedure: A pharmacokinetic study of zoledronic acid (ZA) co-administered with rHuPH20 in human subjects was conducted. […] Serum concentration of ZA was determined using a qualified LC-MS-MS assay after derivatization with diazomethane (Zhu, L S et al. (2006) Rapid Commun. […] The assay range was from 2.0 to 400 ng/mL with a lower limit of quantitation (LLOQ) at 2.0 ng/mL. […] Summary statistics (mean, standard deviation, and median) were calculated using JMP or Microsoft Excel.
observable: Tmax (h)

* O=P(O)(O)C(O)(Cn1ccnc1)P(=O)(O)O | 1.31
